- Tested on: ECHCG (Echinochloa crus-galli)
- methodDescription: Postemergence herbicidal evaluation
- Assay type: in vivo, (L.) Beau
- measurementParameters: postemergence, rate 0.0620 kg/ha
ECHCG herbicidal rating by entry:
experimentalReadout: ECHCG herbicidal rating

compound	experimentalReadout	experimentalValue
Cn1c(C(F)(F)F)cc(=O)n(-c2ccc3snc(-c4nc5ccccc5[nH]c4=O)c3c2)c1=O	ECHCG herbicidal rating	3.0
Cn1c(C(F)(F)F)cc(=O)n(-c2ccc3snc(C4OCC5(CO4)CO5)c3c2)c1=O (stereo not shown)	ECHCG herbicidal rating	4.0
Cn1c(C(F)(F)F)cc(=O)n(-c2ccc3snc(-c4ccco4)c3c2)c1=O	ECHCG herbicidal rating	2.0
Cn1c(C(F)(F)F)cc(=O)n(-c2ccc3snc(C4OCC(c5ccccc5)O4)c3c2)c1=O (stereo not shown)	ECHCG herbicidal rating	3.0
Cn1c(C(F)(F)F)cc(=O)n(-c2ccc3snc(C4(O)N=C(C(C)(C)C)NC4=O)c3c2)c1=O (stereo not shown)	ECHCG herbicidal rating	3.0
Cn1c(C(F)(F)F)cc(=O)n(-c2ccc3snc(C4OC(C)(C)C(C)(C)O4)c3c2)c1=O	ECHCG herbicidal rating	4.0
Cc1nn(-c2nsc3ccc(-n4c(=O)cc(C(F)(F)F)n(C)c4=O)cc23)c(C)c1C	ECHCG herbicidal rating	0.0
Cn1c(C(F)(F)F)cc(=O)n(-c2ccc3snc(-c4sccc4Cl)c3c2)c1=O	ECHCG herbicidal rating	1.0
COC1(c2nsc3ccc(-n4c(=O)cc(C(F)(F)F)n(C)c4=O)cc23)N=C(N(C)C)NC1=O (stereo not shown)	ECHCG herbicidal rating	9.0
Cn1c(C(F)(F)F)cc(=O)n(-c2ccc3snc(-c4sccc4CO)c3c2)c1=O	ECHCG herbicidal rating	2.0
Cc1cnn(-c2nsc3ccc(-n4c(=O)cc(C(F)(F)F)n(C)c4=O)cc23)c1	ECHCG herbicidal rating	0.0
Cn1c(C(F)(F)F)cc(=O)n(-c2ccc3snc(C4(O)C(=O)NC(=N)C4(C)C)c3c2)c1=O (stereo not shown)	ECHCG herbicidal rating	2.0
C[C@@H]1OC(c2nsc3cc(F)c(-n4c(=O)cc(C(F)(F)F)n(C)c4=O)cc23)O[C@@H]1C (stereo partly shown)	ECHCG herbicidal rating	7.0
